Reference source for all entries: patent US20180339041A1

# assayed.target: T1, C-terminally FLAG-tagged human Gas6 recombinant protein (hGas6-F) (human, UniProt Q14393 31-678, gamma-carboxylated glutamic acid residues in the Gla domain (producer cells co-express rat VKOR and human GGCX); positions not given)
# T1 construct: also called human Gas6-F; human Gas6 protein
# T1 sequence: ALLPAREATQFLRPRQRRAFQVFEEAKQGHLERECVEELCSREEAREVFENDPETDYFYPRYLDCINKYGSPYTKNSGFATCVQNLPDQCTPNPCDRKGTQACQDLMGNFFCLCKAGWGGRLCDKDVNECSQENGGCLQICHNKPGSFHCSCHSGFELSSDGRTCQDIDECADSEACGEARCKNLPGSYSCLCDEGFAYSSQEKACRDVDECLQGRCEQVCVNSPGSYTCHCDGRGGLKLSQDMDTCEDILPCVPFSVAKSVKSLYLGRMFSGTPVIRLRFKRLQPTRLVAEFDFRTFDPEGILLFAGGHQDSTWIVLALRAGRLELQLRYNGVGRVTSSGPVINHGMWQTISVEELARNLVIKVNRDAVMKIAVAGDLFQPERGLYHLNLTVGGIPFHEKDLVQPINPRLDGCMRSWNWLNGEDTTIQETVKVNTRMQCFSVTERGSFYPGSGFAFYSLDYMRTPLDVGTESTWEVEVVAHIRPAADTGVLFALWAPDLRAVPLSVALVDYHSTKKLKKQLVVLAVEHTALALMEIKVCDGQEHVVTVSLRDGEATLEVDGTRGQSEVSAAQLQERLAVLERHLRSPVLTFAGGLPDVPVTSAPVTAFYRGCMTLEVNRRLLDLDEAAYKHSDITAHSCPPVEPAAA
# test.description: SPR Biacore T100, captured antibody, Gas6 analyte, first test

binder: hzKM5321 LV6HV1 antibody (antibody, V domains shown, Humanized; variant human IgG4 constant region (EU S228P, L235E, R409K), human kappa; also called B-22; LV6HV1) VH: QVHLVQSGSELKKPGASVKISCKASGYTFTNYGMNWVRQAPGQGLKWMGWINTNTGEPTYTEEFKGRFVFSLDTSVTTSYLQISTLKAEDTAVYFCARDEGWFVYWGQGTLVTVSS VL: ETTLTQSPSSLSVSTGDRVTITCITSTDIDDDMNWYQQKPGKPPKLLISEGNTLRPGVPSRFSSSGSGTDFTLTISSTQPEDFADYYCLQTDSVPLTFGQGTKVEIK
kon: > 102000 M⁻¹ s⁻¹

binder: hzKM5321 LV6HV3b antibody (antibody, V domains shown, Humanized; variant human IgG4 constant region (EU S228P, L235E, R409K), human kappa; also called B-26; LV6HV3b) VH: QVHLVQSGSELKKPGASVKISCKASGYTFTNYGMNWVKQAPGQGLKWMGWINTNTGEPTYTEEFKGRFVFSLDTSVTTSYLQISTLKAEDTATYFCARDEGWFVYWGQGTLVTVSS VL: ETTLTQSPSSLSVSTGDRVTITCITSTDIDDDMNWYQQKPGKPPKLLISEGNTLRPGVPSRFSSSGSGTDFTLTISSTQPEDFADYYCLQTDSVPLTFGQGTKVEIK
kon: > 106000 M⁻¹ s⁻¹

binder: hzKM5320 LV5HV8 antibody (antibody, V domains shown, Humanized; variant human IgG4 constant region (EU S228P, L235E, R409K), human kappa; also called A-16) VH: QIQLVQSGPELKKPGASVKISCKASGYTFTNYGMNWVKQAPGQGLKWMGWINTETGEPTYSDDFKGRFVFSLDTSVTTAYLQISSLKAEDTATYFCAREDGYYGTLDYWGQGTTVTVSS VL: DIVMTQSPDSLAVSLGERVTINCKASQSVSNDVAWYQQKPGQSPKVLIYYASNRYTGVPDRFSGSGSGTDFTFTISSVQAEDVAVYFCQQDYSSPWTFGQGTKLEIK
kon: > 73600 M⁻¹ s⁻¹
